# system_name: Capsid scaffolding protein (Human cytomegalovirus (strain AD169) (HHV-5) (Human herpesvirus 5))
# Sequence (P16753 1-256 limits assumed): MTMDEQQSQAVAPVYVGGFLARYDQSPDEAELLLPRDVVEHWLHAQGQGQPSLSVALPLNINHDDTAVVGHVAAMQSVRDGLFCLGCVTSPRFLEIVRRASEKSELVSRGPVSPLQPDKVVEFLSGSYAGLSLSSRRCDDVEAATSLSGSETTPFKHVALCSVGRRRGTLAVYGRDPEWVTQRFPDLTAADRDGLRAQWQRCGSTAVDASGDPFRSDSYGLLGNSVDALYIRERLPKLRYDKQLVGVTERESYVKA
# assay_method_text: Inhibitory activity against human cytomegalovirus (HCMV) protease was evaluated
observable: pIC50
Please report pIC50 as the negative decimal logarithm of the molar concentration, giving only the number.

Look over these answered cases.
O=C1C=C(c2ccccc2)S(=O)(=O)c2ccccc21
5.82
CS(=O)(=O)c1ccc(C2=CC(=O)c3ccccc3S2(=O)=O)cc1
7.00
O=C1C=C(c2ccncc2)S(=O)(=O)c2ccccc21
7.00
O=C1C=C(c2ccc(-c3ccccc3)cc2)S(=O)(=O)c2ccccc21
7.22

From here, focus on the item given below.
Need pIC50, item `O=C1C=C(c2cccs2)S(=O)(=O)c2ccccc21`
6.34

---

# system_name: Capsid scaffolding protein (Human cytomegalovirus (strain AD169) (HHV-5) (Human herpesvirus 5))
# assay_method_text: Inhibitory activity against human cytomegalovirus (HCMV) protease was evaluated
observable: IC50 (µM)
Could you give me the number in µM? Just the number is fine.

O=C1C=C(c2ccc[n+]([O-])c2)S(=O)(=O)c2ccccc21
0.6
CC(C)c1cccc2c1S(=O)(=O)C(c1ccc([N+](=O)[O-])cc1)=CC2=O
0.18
Cc1cccc2c1C(=O)C=C(c1ccc([N+](=O)[O-])cc1)S2(=O)=O
0.1
O=C1C=C(c2cc[n+]([O-])cc2)S(=O)(=O)c2ccccc21
0.6
O=C1C=C(c2cccnc2)S(=O)(=O)c2ccccc21
0.2
O=c1cc(-c2ccccc2)[s+]([O-])c2ccccc12 (centres undefined)
10
O=C1C=C(c2ccc([N+](=O)[O-])cc2)S(=O)(=O)c2ccccc21
0.06
CCOC(=O)c1ccc2c(c1)C(=O)C=C(c1ccc([N+](=O)[O-])cc1)S2(=O)=O
0.18

# get_value(readout='IC50', item= `CCCCCCCC1=CC(=O)c2ccccc2S1(=O)=O` )
1.4

And for `Cc1cccc2c1S(=O)(=O)C(c1ccc([N+](=O)[O-])cc1)=CC2=O` ?
0.11
